// data source = patent US6143764A

Parameter: inhibition in vivo at 50 mg/kg. Scope: all listed entries.
Tested on: human glioma (GLO7)
experiment: Antitumor effect of the compounds against human glioma (GLO7), nude mice xenograft
Type: in vivo
condition context: Mus musculus, po, 216 h; nude mice, 50 mg/kg orally once a day, 9 days; read-out: Tumor growth inhibition rate (TGIR)

These recorded examples may help you get a feel for the data.
sample smiles	inhibition in vivo at 50 mg/kg
COc1cc2nccc(Oc3ccc(NC(=O)Nc4ccccc4N(C)C)cc3)c2cc1OC	50%
COc1cc2nccc(Oc3ccc(NC(=O)Nc4ccc(Br)cc4)cc3)c2cc1OC	68%
COc1cc2nccc(Oc3ccc(NC(=O)Nc4cccc(F)c4F)cc3)c2cc1OC	52%

Q: Indicate the recorded inhibition in vivo at 50 mg/kg value for this compound: "C=CCNC(=O)Nc1ccc(Oc2ccnc3cc(OC)c(OC)cc23)cc1"
Result: 54%

Q: Indicate the recorded inhibition in vivo at 50 mg/kg value for this compound: "COc1cc2nccc(Oc3ccc(NC(=O)Nc4cccc(Cl)c4OC)cc3)c2cc1OC"
Result: 58%

* * *

assay target: PDGF receptor (Rattus norvegicus, UniProt Q05030)
Construct: cultured rat mesangial cells which are known to have the PDGF receptor; endogenous in cells
Sequence (Q05030 32-1097): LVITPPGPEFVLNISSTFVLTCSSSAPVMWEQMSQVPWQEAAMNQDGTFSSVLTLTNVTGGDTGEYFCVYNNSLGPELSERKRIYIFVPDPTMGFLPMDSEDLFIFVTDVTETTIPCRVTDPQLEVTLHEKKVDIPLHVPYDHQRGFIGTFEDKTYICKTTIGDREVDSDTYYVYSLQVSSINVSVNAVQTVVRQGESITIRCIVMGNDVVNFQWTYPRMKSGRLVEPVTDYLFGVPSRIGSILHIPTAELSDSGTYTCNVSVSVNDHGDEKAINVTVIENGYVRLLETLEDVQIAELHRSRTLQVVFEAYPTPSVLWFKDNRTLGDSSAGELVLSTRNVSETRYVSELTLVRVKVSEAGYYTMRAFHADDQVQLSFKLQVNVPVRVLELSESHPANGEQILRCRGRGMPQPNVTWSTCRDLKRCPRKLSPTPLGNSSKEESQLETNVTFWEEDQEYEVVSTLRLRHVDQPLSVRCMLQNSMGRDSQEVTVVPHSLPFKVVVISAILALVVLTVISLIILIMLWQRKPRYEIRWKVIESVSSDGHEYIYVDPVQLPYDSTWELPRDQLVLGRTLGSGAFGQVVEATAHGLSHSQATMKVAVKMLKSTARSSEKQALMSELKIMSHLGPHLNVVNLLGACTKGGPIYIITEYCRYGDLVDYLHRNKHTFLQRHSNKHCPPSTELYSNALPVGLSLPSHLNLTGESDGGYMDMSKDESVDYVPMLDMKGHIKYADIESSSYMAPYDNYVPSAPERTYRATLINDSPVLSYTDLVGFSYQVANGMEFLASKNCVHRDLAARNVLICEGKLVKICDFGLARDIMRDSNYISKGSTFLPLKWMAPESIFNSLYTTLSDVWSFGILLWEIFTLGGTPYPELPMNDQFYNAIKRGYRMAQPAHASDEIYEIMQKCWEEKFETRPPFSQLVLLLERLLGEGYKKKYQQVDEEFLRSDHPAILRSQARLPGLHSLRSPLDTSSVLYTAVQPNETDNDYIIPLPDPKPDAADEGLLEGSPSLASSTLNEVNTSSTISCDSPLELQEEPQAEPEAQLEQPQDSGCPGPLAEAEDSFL
experiment: PDGF receptor autophosphorylation inhibition in cultured rat mesangial cells
condition context: PDGF-BB 50 ng/ml
measured property: IC50
A complete answer gives the number followed by the unit.

These recorded examples may help you get a feel for the data.
molecule	assay target	IC50
COc1cc2nccc(Oc3ccc(NC(=O)c4ccc(N(C)C)cc4)cc3)c2cc1OC [Compound 67]	PDGF receptor (Rattus norvegicus, UniProt Q05030)	110 nM
COc1cc2nccc(Oc3ccc(NC(=O)Nc4ccccc4)cc3)c2cc1OC [Compound 167]	PDGF receptor (Rattus norvegicus, UniProt Q05030)	4 nM
COc1cc2nccc(Oc3ccc(NC(=O)NC(=O)c4ccccn4)cc3)c2cc1OC [Compound 240]	PDGF receptor (Rattus norvegicus, UniProt Q05030)	150 nM
COc1cc2nccc(Oc3ccc(NC(=O)Nc4ccc([N+](=O)[O-])cc4)cc3)c2cc1OC [Compound 46]	PDGF receptor (Rattus norvegicus, UniProt Q05030)	21 nM

Q: Indicate the recorded IC50 value for this molecule: COc1cc2nccc(Oc3ccc(NC(=O)NCc4ccc(C(C)(C)C)cc4)cc3)c2cc1OC [Compound 248]
Result: 63 nM

Q: Indicate the recorded IC50 value for this molecule: COc1cc2nccc(Oc3ccc(NC(=O)Nc4ccc5c(c4)CCC5)cc3)c2cc1OC [Compound 197]
Result: 10 nM

Q: Indicate the recorded IC50 value for this molecule: COc1cc2nccc(Oc3ccc(NC(=O)Nc4ccc(SC)cc4)cc3)c2cc1OC [Compound 163]
Result: 5 nM

Q: Indicate the recorded IC50 value for this molecule: COc1cc2nccc(Oc3ccc(NC(=O)Nc4ccccc4[N+](=O)[O-])cc3)c2cc1OC [Compound 168]
Result: 6 nM

Q: Indicate the recorded IC50 value for this molecule: COc1cc2nccc(Oc3ccc(NC(=O)Nc4cccc(C(F)(F)F)c4)cc3)c2cc1OC [Compound 53]
Result: 10 nM

Q: Indicate the recorded IC50 value for this molecule: CCOC(=O)NC(=O)Nc1ccc(Oc2ccnc3cc(OC)c(OC)cc23)cc1 [Compound 190]
Result: 21 nM

* * *

Parameter: pIC50. Scope: all listed entries.
assay target: PDGF receptor (Rattus norvegicus, UniProt Q05030)
Construct: cultured rat mesangial cells which are known to have the PDGF receptor; endogenous in cells
experiment: PDGF receptor autophosphorylation inhibition in cultured rat mesangial cells
condition context: PDGF-BB 50 ng/ml
# pIC50 is unitless: minus log10 of the molar concentration; print number only

These recorded examples may help you get a feel for the data.
compound	pIC50
COc1cc2nccc(Oc3ccc(NC(=O)C4CCCCC4)cc3)c2cc1OC [Compound 63]	6.40
COc1cc2nccc(Oc3ccc(NC(=O)Nc4cccc(O)c4)cc3)c2cc1OC [Compound 282]	8.10
COc1cc2nccc(Oc3ccc(NC(=O)c4ccc(Br)cc4)cc3)c2cc1OC [Compound 75]	6.74
COc1cc2nccc(Oc3ccc(NC(=O)NCc4ccncc4)cc3)c2cc1OC [Compound 250]	7.77

Q: Indicate the recorded pIC50 value for this compound: COc1cc2nccc(Oc3ccc(NC(=O)Nc4ccc(Br)cc4)cc3)c2cc1OC [Compound 45]
Result: 7.85
